System: 636577-100-R-J1-PDC complex spheroid viability;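 further: luminescence signal used as a proxy for viable cells; viability read after seven days of drug exposure; 100% = DMSO vehicle control wells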
Assay: Anticancer human tumor 636577-100-R-J1-PDC patient-derived endometrial adenocarcinoma cell line growth inhibition [GQUAD]
Condition notes: second compound 1 µM; first compound 0.00316 µM; active compounds read low
Each entry below carries its recorded viability, T/C.
Readout name: viability, T/C (%)

>>> measured("Cn1ncnc1[C@H]1c2n[nH]c(=O)c3cc(F)cc(c23)N[C@@H]1c1ccc(F)cc1 + CN(C)c1ccc(Nc2c3ccc(NC(=O)CCN4CCCC4)cc3nc3cc(NC(=O)CCN4CCCC4)ccc23)cc1")
63.6
>>> measured("Cn1ncnc1[C@H]1c2n[nH]c(=O)c3cc(F)cc(c23)N[C@@H]1c1ccc(F)cc1 + Cc1[nH]c2ccc(F)cc2c1-c1nc2c3cccnc3c3ncccc3c2[nH]1")
76.3
>>> measured("Cc1[nH]c2ccccc2c1CCNCc1ccc(/C=C/C(=O)NO)cc1 + Cc1cnc(CNC(=O)c2c(=O)c3ccc(N4CCCN(C)CC4)nc3n3c2sc2ccccc23)cn1")
20.9
>>> measured("Cc1[nH]c2ccccc2c1CCNCc1ccc(/C=C/C(=O)NO)cc1 + CN(C)c1ccc(Nc2c3ccc(NC(=O)CCN4CCCC4)cc3nc3cc(NC(=O)CCN4CCCC4)ccc23)cc1")
48.6
>>> measured("CCc1c2c(nc3ccc(O)cc13)-c1cc3c(c(=O)n1C2)COC(=O)[C@]3(O)CC + CN(C)c1ccc(Nc2c3ccc(NC(=O)CCN4CCCC4)cc3nc3cc(NC(=O)CCN4CCCC4)ccc23)cc1")
21.4
